Exercise: for every item that follows, state its recorded viability at 1 day, 1 µM.
# test: Cytotoxicity against human MSC assessed as cell viability at 1 uM measured on day 1 by alamar blue assay (reference value: 97 to 101%)
# condition-info: MSC cells, read-out: Activity
Return type: number; implicit unit %.

Query: Read the entry O=c1cc(-c2ccc(O)cc2)oc2cc(O)cc(O)c12 and write its reported viability at 1 day, 1 µM.
Reply: 98

Query: Read the entry O=c1c(O)c(-c2cc(O)c(O)c(O)c2)oc2cc(O)cc(O)c12 and write its reported viability at 1 day, 1 µM.
Reply: 100

Query: Read the entry O=c1c(O)c(-c2ccc(O)cc2)oc2cc(O)cc(O)c12 and write its reported viability at 1 day, 1 µM.
Reply: 96

Query: Read the entry O=C1c2c(O)cc(O)cc2O[C@H](c2ccc(O)c(O)c2)[C@H]1O [(+)-TAXIFOLIN] and write its reported viability at 1 day, 1 µM.
Reply: 103

Query: Read the entry COc1ccc([C@@H]2CC(=O)c3c(O)cc(O)cc3O2)cc1O and write its reported viability at 1 day, 1 µM.
Reply: 102

Query: Read the entry COc1cc(-c2oc3cc(O)cc(O)c3c(=O)c2O)ccc1O and write its reported viability at 1 day, 1 µM.
Reply: 105

Query: Read the entry O=c1c(O)c(-c2ccc(O)c(O)c2)oc2cc(O)cc(O)c12 and write its reported viability at 1 day, 1 µM.
Reply: 101

Query: Read the entry O=c1cc(-c2ccccc2)oc2ccccc12 and write its reported viability at 1 day, 1 µM.
Reply: 102

Query: Read the entry O=c1cc(-c2ccc(O)c(O)c2)oc2cc(O)cc(O)c12 and write its reported viability at 1 day, 1 µM.
Reply: 100

Query: Read the entry O=c1c(O)c(-c2ccc(O)c(O)c2)oc2cc(O)ccc12 and write its reported viability at 1 day, 1 µM.
Reply: 98

====

Exercise: for every item that follows, state its recorded viability at 144 h, 1 µM.
# test: Cytotoxicity against human MSC assessed as cell viability at 1 uM treated for 6 days measured on day 7 by alamar blue assay (reference value: 96 to 101%)
# condition-info: MSC cells, read-out: Activity
Return type: number; implicit unit %.

Query: Read the entry O=c1cc(-c2ccc(O)cc2)oc2cc(O)cc(O)c12 and write its reported viability at 144 h, 1 µM.
Reply: 96

Query: Read the entry O=c1c(O)c(-c2cc(O)c(O)c(O)c2)oc2cc(O)cc(O)c12 and write its reported viability at 144 h, 1 µM.
Reply: 97

Query: Read the entry COc1ccc(-c2oc3cc(O)cc(O)c3c(=O)c2O)cc1O and write its reported viability at 144 h, 1 µM.
Reply: 94

Query: Read the entry O=c1c(O)c(-c2ccccc2)oc2cc(O)cc(O)c12 and write its reported viability at 144 h, 1 µM.
Reply: 99

Query: Read the entry Oc1ccc(/C=C/c2cc(O)cc(O)c2)cc1 and write its reported viability at 144 h, 1 µM.
Reply: 96
